- ASSAY_DETAILS: physchem
- CONDITION_CONTEXT: LogPA
Criterion: chromatographic logP strictly under 2. Met: fulfilled. Not met: not fulfilled.

>>> df
                                    compound  classification
 0  CC(C)Nc1nccc(-c2cn(C)nc2-c2ccc(F)cc2)n1 [Compound 361]       fulfilled
 1  CC(C)Cn1cc(-c2ccnc(N(C(=O)C(C)(C)C(=O)C(C)C)C(C)C)n2)c(-c2ccc(F)cc2)n1 [Compound 186]   not fulfilled
 2  CCn1cc(-c2ccnc(NC(=O)Cc3ccccc3)c2)c(-c2ccc(F)cc2)n1 [Compound 190]   not fulfilled
 3  CCn1cc(-c2ccnc(NC(=O)[C@H](C)O)c2)c(-c2ccc(F)cc2)n1 [Compound 352]       fulfilled
 4  CC(C)On1cc(-c2ccncc2)c(-c2ccc(F)cc2)n1 [Compound 227]       fulfilled
 5  Cc1c(-c2ccncc2)c(-c2ccc(F)cc2)nn1CC(F)F [Compound 367]       fulfilled
 6  C[C@H](O)C(=O)Nc1cc(-c2cn(C)nc2-c2ccc(F)cc2)ccn1 [Compound 353]       fulfilled
 7  CCCn1cc(-c2ccnc(NC(=O)CC)c2)c(-c2ccc(F)cc2)n1 [Compound 292]   not fulfilled
 8  Cc1c(-c2ccncc2)c(-c2ccc(F)cc2)nn1CC(C)C [Compound 368]   not fulfilled
 9  CCn1cc(-c2ccnc(NC(=O)COC)c2)c(-c2ccc(F)cc2)n1 [Compound 203]   not fulfilled
10  CCC(=O)Nc1cc(-c2cn(C(C)c3ccccc3F)nc2-c2ccc(F)cc2)ccn1 (stereo not drawn) [Compound 248]   not fulfilled
11  CC(C)On1cc(-c2ccnc(NC(=O)C3CC3)c2)c(-c2ccc(F)cc2)n1 [Compound 271]   not fulfilled
12  FCC(CF)n1cc(-c2ccncc2)c(-c2ccc(F)cc2)n1 [Compound 177]       fulfilled
13  CCn1cc(-c2ccnc(NC(=O)c3snnc3C)c2)c(-c2ccc(F)cc2)n1 [Compound 335]   not fulfilled
14  CC(C1CC1)n1cc(-c2ccncc2)c(-c2ccc(F)cc2)n1 (stereo not drawn) [Compound 305]       fulfilled
15  CCC(=O)Nc1cc(-c2cn(C3CCN(C(=O)OC(C)(C)C)CC3)nc2-c2ccc(F)cc2)ccn1 [Compound 193]   not fulfilled
16  COCC(=O)Nc1cc(-c2c(-c3ccc(Cl)cc3F)nn(C)c2SC)ccn1 [Compound 200]   not fulfilled
17  CC(C)Cn1cc(-c2ccnc(N(C(=O)C(C)C)C(C)C)n2)c(-c2ccc(F)cc2)n1 [Compound 185]   not fulfilled
18  CC(C)(O)C(=O)Nc1cc(-c2cn(CC(F)F)nc2-c2ccc(F)cc2)ccn1 [Compound 243]   not fulfilled
19  CCn1cc(-c2ccnc(NC(=O)CC3CCCC3)c2)c(-c2ccc(F)cc2)n1 [Compound 338]   not fulfilled
20  CC(C)Cn1cc(-c2ccnc(NC(=O)C(C)C)c2)c(-c2ccc(F)c(C#N)c2)n1 [Compound 255]   not fulfilled
21  CC(C)C(=O)Nc1cc(-c2cn(Cc3cccc(C#N)c3)nc2-c2ccc(F)cc2)ccn1 [Compound 308]   not fulfilled
22  CCOCCn1cc(-c2ccnc(NC(=O)COC)c2)c(-c2ccc(F)cc2)n1 [Compound 327]   not fulfilled
23  CC(=O)Nc1cc(-c2cn(CC(F)F)nc2-c2ccc(F)cc2)ccn1 [Compound 242]       fulfilled
24  COCC(=O)Nc1cc(-c2cn(CC(C)C)nc2-c2ccc(F)cc2)ccn1 [Compound 166]   not fulfilled

Values from patent US20110183978A1
